- Measured target: human ether-à-go-go-related gene (hERG) potassium channel (human);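 further: peak tail current of the secondary pulse compared with the same well before compound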
- Sequence (Q12809 whole entry, looked up): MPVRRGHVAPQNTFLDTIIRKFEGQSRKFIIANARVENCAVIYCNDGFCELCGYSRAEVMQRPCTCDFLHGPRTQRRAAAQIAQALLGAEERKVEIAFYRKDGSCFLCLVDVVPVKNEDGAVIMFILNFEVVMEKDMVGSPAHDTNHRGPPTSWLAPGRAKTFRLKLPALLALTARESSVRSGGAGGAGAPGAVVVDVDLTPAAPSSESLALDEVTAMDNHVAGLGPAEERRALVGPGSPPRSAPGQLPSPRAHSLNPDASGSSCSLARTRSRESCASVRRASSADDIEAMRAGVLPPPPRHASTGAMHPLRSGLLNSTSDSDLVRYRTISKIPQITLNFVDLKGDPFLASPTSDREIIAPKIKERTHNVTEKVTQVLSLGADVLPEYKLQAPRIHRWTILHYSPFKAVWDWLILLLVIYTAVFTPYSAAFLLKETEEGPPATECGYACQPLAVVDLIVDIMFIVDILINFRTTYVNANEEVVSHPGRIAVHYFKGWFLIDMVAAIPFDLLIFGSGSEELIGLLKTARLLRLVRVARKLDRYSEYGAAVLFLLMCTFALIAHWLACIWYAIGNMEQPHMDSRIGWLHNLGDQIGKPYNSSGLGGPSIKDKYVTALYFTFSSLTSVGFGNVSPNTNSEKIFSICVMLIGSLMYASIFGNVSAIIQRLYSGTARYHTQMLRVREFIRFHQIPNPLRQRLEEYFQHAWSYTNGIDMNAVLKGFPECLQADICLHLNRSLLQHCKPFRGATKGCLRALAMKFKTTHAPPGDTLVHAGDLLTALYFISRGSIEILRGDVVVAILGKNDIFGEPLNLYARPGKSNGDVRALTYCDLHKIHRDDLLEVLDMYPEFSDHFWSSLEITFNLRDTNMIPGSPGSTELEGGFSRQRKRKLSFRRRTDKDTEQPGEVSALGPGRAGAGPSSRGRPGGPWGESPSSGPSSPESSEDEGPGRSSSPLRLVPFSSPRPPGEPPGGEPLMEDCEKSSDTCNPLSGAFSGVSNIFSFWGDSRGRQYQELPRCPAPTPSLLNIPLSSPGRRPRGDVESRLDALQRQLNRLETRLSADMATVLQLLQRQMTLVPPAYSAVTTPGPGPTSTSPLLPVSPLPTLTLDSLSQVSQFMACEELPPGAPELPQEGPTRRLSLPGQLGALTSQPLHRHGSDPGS
- Experiment summary: primary screen, population patch clamp on CHO cells stably expressing hERG; higher = less effect of the substance
Among all 310,000 compounds or so, about 14,000 (4.5%) showed an effect of 50% or more. The effect is printed as a negative number. For the sample, strong results were picked, then their nearest neighbours and some compounds at random.
Values of hERG current change (%, negative = inhibition) at 10uM greater than or equal to -50% map to Condition met; values below map to Condition not met.

Solved cases (3 shown):
N=c1c2c(-c3ccccc3)c(-c3ccccc3)oc2ncn1CCCN1CCOCC1 :: Condition not met
N=c1c2c(-c3ccccc3)c(-c3ccccc3)oc2ncn1CCN1CCOCC1 :: Condition not met
COc1ccc(-c2oc3ncnc(NCCN4CCOCC4)c3c2-c2ccc(OC)cc2)cc1 :: Condition met

Test whether the molecule COC(=O)c1ccccc1NC(=O)c1cc2n(n1)C(C(F)F)CC(C(F)F)N2 (centres unmarked) records hERG current change (%, negative = inhibition) at 10uM of -50% or higher.
Condition met
